- Test system: Mus musculus
- procedure-details: Anticonvulsant activity in albino CF1 mouse assessed as protection against subcutaneous metrazol-induced seizures at 100 mg/kg, ip measured after 0.5 hr
- Type: functional, organism-based
- Parameters: dose 100 mg/kg
The source made the active and inactive calls. The calls are words filed in the database; no cut-off is given here.
Outcome codes: Yes = active, No = inactive

                                   compound  class_assignment
0  O=C1NC(=O)[C@@H](c2cccc(C(F)(F)F)c2)N2CCC[C@@H]12                No
1  O=C1NC(=O)[C@@H]2CCCCN2[C@H]1c1cccc(C(F)(F)F)c1                No
2  O=C1NC(=O)[C@@H]2CCCN2[C@H]1c1c(F)cccc1Cl (mixture of isomers)                No
3  Cl.O=C1NC(=O)[C@@H]2CCCN2[C@H]1c1cccc(C(F)(F)F)c1                No
4   O=C1NC(=O)[C@@H]2CCCN2[C@H]1c1cccc(F)c1               Yes

----------
- procedure-details: Protective index, ratio of TD50 for neurotoxicity in ip dosed albino CF1 mouse to ED50 for anticonvulsant activity in ip dosed 6 Hz current-induced seizure albino CF1 mouse model
- Assay type: toxicity, organism-based
- applied-conditions: in vivo, read-out: Ratio TD50/ED50
quantity: selectivity ratio

>>> df
                 chem_smiles  result
0  CC[C@@H](C(N)=O)N1CCCC1=O  > 25.8

----------
- procedure-details: Neurotoxicity in ip dosed Sprague-Dawley rat measured at 0.25 hr post dose
- Type: toxicity, organism-based
- applied-conditions: in vivo
quantity: TD50 at 0.25 h (µmol/kg)

>>> print(df.to_string())
                                   molecule  unit_string  measured_number
0  CCCC(CCC)C(=O)[O-].[Na+] [VALPROATE SODIUM]      µmol/kg             1910

----------
- Test system: Mus musculus
- procedure-details: Neurotoxicity in albino CF1 mouse at 100 mg/kg, ip measured after 4 hrs
- Assay type: toxicity, organism-based
- Parameters: dose 100 mg/kg, route intraperitoneal
- applied-conditions: in vivo
quantity: Activity

                                    molecule  quantity     result
 0   O=C1NC(=O)[C@@H]2CCCN2[C@H]1c1ccc(F)cc1  Activity  Non-toxic
 1  O=C1NC(=O)[C@@H]2CCCN2[C@H]1c1c(F)cccc1Cl (mixture of isomers)  Activity  Non-toxic
 2  O=C1NC(=O)[C@@H]2CCCN2[C@H]1c1c(F)cccc1F (mixture of isomers)  Activity  Non-toxic
 3  O=C1NC(=O)[C@@H]2CCCN2[C@H]1c1ccccc1C(F)(F)F  Activity  Non-toxic
 4  Cl.O=C1NC(=O)[C@@H](c2cccc(C(F)(F)F)c2)N2CCC[C@H]12  Activity  Non-toxic
 5   O=C1NC(=O)[C@@H]2CCCN2[C@H]1c1cccc(F)c1  Activity  Non-toxic
 6  Cl.O=C1NC(=O)[C@@H]2C[C@@H](O)CN2C1c1cccc(C(F)(F)F)c1 (mixture of isomers)  Activity  Non-toxic
 7  O=C1NC(=O)[C@@H]2CCCCN2[C@H]1c1cccc(C(F)(F)F)c1  Activity  Non-toxic
 8  O=C1NC(=O)[C@@H]2CCCN2[C@H]1c1cccc(OC(F)(F)F)c1  Activity  Non-toxic
 9  Cl.O=C1NC(=O)[C@@H]2CCCN2[C@H]1c1cccc(C(F)(F)F)c1  Activity  Non-toxic
10  O=C1NC(=O)[C@@H](c2cccc(C(F)(F)F)c2)N2CCCC[C@H]12  Activity  Non-toxic
11     O=C1NC(=O)[C@@H]2CCCN2[C@H]1c1ccccc1F  Activity  Non-toxic
12  O=C1NC(=O)[C@@H]2CCCN2[C@H]1c1cc(F)cc(F)c1  Activity  Non-toxic
13  O=C1NC(=O)[C@@H]2CCCN2[C@H]1c1ccc(C(F)(F)F)cc1  Activity  Non-toxic
14  O=C1NC(=O)[C@H](c2cccc(C(F)(F)F)c2)N2CCC[C@H]12  Activity  Non-toxic
15  O=C1NC(=O)[C@@H](c2cccc(C(F)(F)F)c2)N2CCC[C@@H]12  Activity  Non-toxic
